# credit: patent US20090298765A1

# experimental_system: T1, human OT7T175 (metastin receptor) (human, UniProt Q969F8 1-398)
# T1 construct: expressed on CHO cells; also called hOT7T175; hOT7T175-expressed CHO cells
# T1 sequence (Q969F8 whole entry L364H): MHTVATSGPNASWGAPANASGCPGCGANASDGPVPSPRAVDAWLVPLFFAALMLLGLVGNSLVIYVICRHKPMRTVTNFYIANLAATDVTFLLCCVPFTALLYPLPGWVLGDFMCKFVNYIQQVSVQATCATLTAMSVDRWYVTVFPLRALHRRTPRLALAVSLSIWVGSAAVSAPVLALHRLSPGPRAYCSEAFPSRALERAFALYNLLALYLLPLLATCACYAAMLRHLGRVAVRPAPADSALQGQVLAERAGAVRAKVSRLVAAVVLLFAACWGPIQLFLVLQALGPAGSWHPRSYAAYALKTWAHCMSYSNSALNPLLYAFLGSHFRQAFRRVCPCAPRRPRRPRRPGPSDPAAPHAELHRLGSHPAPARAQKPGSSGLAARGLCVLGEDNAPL
# protocol_text: competition with Cy-5 metastin (40-54) on hOT7T175-CHO cells, FMAT
Non-standard residues stand in square brackets, D forms with d. No end group written: not given here. *: point of attachment. 2Nal = N[C@@H](Cc1ccc2ccccc2c1)C(=O)O; Phe(2-F) = N[C@@H](Cc1ccccc1F)C(=O)O; Arg(Me) = CNC(=N)NCCC[C@H](N)C(=O)O; Hydrocinnamoyl = O=C(CCc1ccccc1)*; azaGly = NNC(=O)O
endpoint: IC50 (nM)
API: value field is a number in nM; no unit string.

Known IC50 results, listed for orientation:
Q: Need IC50, item [dY]NTNSF[azaGly]L[Arg(Me)]F-NH2 (also called Compound No. 221) [[D-Tyr1,Thr3,AzaGly7,Arg(Me)9]MS10]
Ans: 95

Q: Param item: Hydrocinnamoyl-NSF[azaGly]L[Arg(Me)]F-NH2 (also called Compound No. 269) [des(1-3)-3-Phenylpropionyl-[AzaGly7,Arg(Me)9]MS10]
Ans: 470

Q: Another binder to check: YNWNSFSLRF-NH2 (also called Compound No. 101) [[Ser7]MS10]
Ans: 100

Others:
Q: I have this binder here, [dY]N[2Nal]NSF[azaGly]L[Arg(Me)]F-NH2 (N-terminus assumed; SMILES CNC(=N)NCCC[C@H](NC(=O)[C@H](CC(C)C)NC(=O)NNC(=O)[C@H](Cc1ccccc1)NC(=O)[C@H](CO)NC(=O)[C@H](CC(N)=O)NC(=O)[C@H](Cc1ccc2ccccc2c1)NC(=O)[C@H](CC(N)=O)NC(=O)[C@H](N)Cc1ccc(O)cc1)C(=O)N[C@@H](Cc1ccccc1)C(N)=O, also called Compound No. 246) [[D-Tyr1,Nal(2)3,AzaGly7,Arg(Me)9]MS10] , and I need its recorded IC50.
Ans: 7.1

Q: Can you handle YNWNSFGLRY-NH2 (also called Compound No. 109) [[Tyr10]MS10] next?
Ans: 23

Q: And the next one, [dY]WNSFGL[Arg(Me)]F-NH2 (N-terminus assumed; SMILES CNC(=N)NCCC[C@H](NC(=O)[C@H](CC(C)C)NC(=O)CNC(=O)[C@H](Cc1ccccc1)NC(=O)[C@H](CO)NC(=O)[C@H](CC(N)=O)NC(=O)[C@H](Cc1c[nH]c2ccccc12)NC(=O)[C@H](N)Cc1ccc(O)cc1)C(=O)N[C@@H](Cc1ccccc1)C(N)=O, also called Compound No. 217) [des(1)-[D-Tyr2,Arg(Me)9]MS10] ?
Ans: 250

Q: What about this binder? YN[dW]NSFGL[Arg(Me)]F-NH2 (also called Compound No. 143) [[D-Trp3,Arg(Me)9]MS10]
Ans: 7.7

Q: Param item: YNWNSFGLR[Phe(2-F)]-NH2 (also called Compound No. 19) [[Phe(2F)10]MS10]
Ans: 8.6

Q: Please answer likewise for [dY]NWNSFAL[Arg(Me)]F-NH2 (N-terminus assumed; SMILES CNC(=N)NCCC[C@H](NC(=O)[C@H](CC(C)C)NC(=O)[C@H](C)NC(=O)[C@H](Cc1ccccc1)NC(=O)[C@H](CO)NC(=O)[C@H](CC(N)=O)NC(=O)[C@H](Cc1c[nH]c2ccccc12)NC(=O)[C@H](CC(N)=O)NC(=O)[C@H](N)Cc1ccc(O)cc1)C(=O)N[C@@H](Cc1ccccc1)C(N)=O, also called Compound No. 204) [[D-Tyr1,Ala7,Arg(Me)9]MS10]
Ans: 680
